Organism: Rattus norvegicus
Experiment: Open TG-GATES - Regimen: Single
Type: toxicity, organism-based, Sprague-Dawley
Set-up: regimen Single, gender Male, age 6 weeks
Conditions: in vivo, po, 0 mg/kg, 3 h, tissue Blood, route gavage, dose level Control
Recorded Hb, one value per entry.
All answers are understood in g/dL, so give the number only.

Check out these entries, answers already filled in.
[
  {
    "compound": "CCC1(c2ccccc2)C(=O)NC(=O)NC1=O",
    "Hb (g/dL)": 13.6
  },
  {
    "compound": "CN(C)C(=N)N=C(N)N",
    "Hb (g/dL)": 13.1
  },
  {
    "compound": "CC(C)N(CCC(C(N)=O)(c1ccccc1)c1ccccn1)C(C)C (stereo not given) [DISOPYRAMIDE]",
    "Hb (g/dL)": 13.2
  }
]

So, `CCc1oc2ccccc2c1C(=O)c1cc(Br)c(O)c(Br)c1` ? Its Hb was 13.8

So, OCCOCCN1CCN(C(c2ccccc2)c2ccc(Cl)cc2)CC1 (stereo not given) [HYDROXYZINE] ? Its Hb was 13.2

So, CN(C)CCC=C1c2ccccc2COc2ccccc21 [DOXEPIN] ? Its Hb was 13.6

So, `O=NN(CCCl)C(=O)NC1CCCCC1` ? Its Hb was 13

So, CC1=C(CC(=O)O)c2cc(F)ccc2/C1=C\c1ccc([S+](C)[O-])cc1 (stereo not given) ? Its Hb was 13.9

So, ClC(Cl)(Cl)Cl [CARBON TETRACHLORIDE] ? Its Hb was 13

So, `CC[C@H]1[C@@H]2C[C@H]3[C@@H]4N(C)c5ccccc5[C@]45C[C@@H]([C@@H]2[C@H]5O)N3[C@@H]1O` ? Its Hb was 12.8

----------
Recorded PT, one value per entry.
Species on record: Rattus norvegicus
Assay: Open TG-GATES - Regimen: Single
Assay type: toxicity, organism-based, Sprague-Dawley
Set-up: regimen Single, gender Male, age 6 weeks
Settings: in vivo, po, 0 mg/kg, 9 h, tissue Blood, route gavage, dose level Control
All answers are understood in s, so give the number only.

[
  {
    "molecule": "CN(C)C(=N)N=C(N)N",
    "PT, s": 12.2
  }
]

Would you kindly look at the next entry?
So, `CCC1(c2ccccc2)C(=O)NC(=O)NC1=O` ? Its PT was 12.3

----------
Organism: Rattus norvegicus
Experiment: Open TG-GATES - Regimen: Single
Type: toxicity, organism-based, Sprague-Dawley
Design: regimen Single, gender Male, age 6 weeks
Conditions: in vivo, po, 0 mg/kg, 3 h, tissue Plasma, route gavage, dose level Control
endpoint: Cl (meq/L)
All answers are understood in meq/L, so give the number only.

[
  {
    "compound": "CN(C)C(=N)N=C(N)N",
    "Cl / meq/L": 104
  },
  {
    "compound": "CCC1(c2ccccc2)C(=O)NC(=O)NC1=O",
    "Cl / meq/L": 103.4
  },
  {
    "compound": "CCc1oc2ccccc2c1C(=O)c1cc(Br)c(O)c(Br)c1",
    "Cl / meq/L": 104
  }
]

So, CC(C)N(CCC(C(N)=O)(c1ccccc1)c1ccccn1)C(C)C (centres undefined) [DISOPYRAMIDE] ? Its Cl was 108.2

So, `CC[C@H]1[C@@H]2C[C@H]3[C@@H]4N(C)c5ccccc5[C@]45C[C@@H]([C@@H]2[C@H]5O)N3[C@@H]1O` ? Its Cl was 100.8

So, OCCOCCN1CCN(C(c2ccccc2)c2ccc(Cl)cc2)CC1 (centres undefined) [HYDROXYZINE] ? Its Cl was 106

So, CC1=C(CC(=O)O)c2cc(F)ccc2/C1=C\c1ccc([S+](C)[O-])cc1 (centres undefined) ? Its Cl was 105.4

So, ClC(Cl)(Cl)Cl [CARBON TETRACHLORIDE] ? Its Cl was 104.2

So, `O=NN(CCCl)C(=O)NC1CCCCC1` ? Its Cl was 106.4

----------
Species on record: Rattus norvegicus
Assay: Open TG-GATES - Regimen: Daily Repeat
Type: toxicity, organism-based, Sprague-Dawley
Design: regimen Daily Repeat, gender Male, age 6 weeks
Conditions: in vivo, po, 0 mg/kg, […], tissue Blood, route gavage, dose level Control, time 28 day
endpoint: Fbg (mg/dL)
All answers are understood in mg/dL, so give the number only.

Check out these entries, answers already filled in.
[
  {
    "molecule": "CC1=C(CC(=O)O)c2cc(F)ccc2/C1=C\\c1ccc([S+](C)[O-])cc1 (stereo unspecified)",
    "Fbg (mg/dL)": 282.6
  },
  {
    "molecule": "CN(C)C(=N)N=C(N)N [METFORMIN]",
    "Fbg (mg/dL)": 260
  },
  {
    "molecule": "OCCOCCN1CCN(C(c2ccccc2)c2ccc(Cl)cc2)CC1 (stereo unspecified) [HYDROXYZINE]",
    "Fbg (mg/dL)": 295.8
  },
  {
    "molecule": "CC(C)N(CCC(C(N)=O)(c1ccccc1)c1ccccn1)C(C)C (stereo unspecified) [DISOPYRAMIDE]",
    "Fbg (mg/dL)": 317
  },
  {
    "molecule": "CCc1oc2ccccc2c1C(=O)c1cc(Br)c(O)c(Br)c1 [BENZBROMARONE]",
    "Fbg (mg/dL)": 230.2
  }
]

So, CCCCc1oc2ccccc2c1C(=O)c1cc(I)c(OCCN(CC)CC)c(I)c1 [AMIODARONE] ? Its Fbg was 224.6

----------
Recorded A/G, one value per entry.
Species: Rattus norvegicus
Experiment: Open TG-GATES - Regimen: Single
Assay type: toxicity, organism-based, Sprague-Dawley
Design: regimen Single, gender Male, age 6 weeks
Conditions: in vivo, po, 0 mg/kg, 24 h, tissue Plasma, route gavage, dose level Control
Write the value as a bare number.

[
  {
    "compound": "CCC1(c2ccccc2)C(=O)NC(=O)NC1=O",
    "readoutNumber": 1.6
  },
  {
    "compound": "CCc1oc2ccccc2c1C(=O)c1cc(Br)c(O)c(Br)c1",
    "readoutNumber": 2.1
  }
]

So, OCCOCCN1CCN(C(c2ccccc2)c2ccc(Cl)cc2)CC1 (stereo not drawn) [HYDROXYZINE] ? Its A/G was 0.9

----------
Recorded Hb, one value per entry.
Organism: Rattus norvegicus
Assay: Open TG-GATES - Regimen: Single
Format: toxicity, organism-based, Sprague-Dawley
Set-up: regimen Single, gender Male, age 6 weeks
Conditions: in vivo, po, 0 mg/kg, 9 h, tissue Blood, route gavage, dose level Control
All answers are understood in g/dL, so give the number only.

Check out these entries, answers already filled in.
[
  {
    "compound": "CC[C@H]1[C@@H]2C[C@H]3[C@@H]4N(C)c5ccccc5[C@]45C[C@@H]([C@@H]2[C@H]5O)N3[C@@H]1O",
    "resultUnits": "g/dL",
    "readoutNumber": 12.7
  },
  {
    "compound": "CN(C)C(=N)N=C(N)N",
    "resultUnits": "g/dL",
    "readoutNumber": 12.4
  },
  {
    "compound": "O=NN(CCCl)C(=O)NC1CCCCC1",
    "resultUnits": "g/dL",
    "readoutNumber": 13.1
  }
]

So, `CCc1oc2ccccc2c1C(=O)c1cc(Br)c(O)c(Br)c1` ? Its Hb was 13.6

So, CC(C)N(CCC(C(N)=O)(c1ccccc1)c1ccccn1)C(C)C (stereo not given) [DISOPYRAMIDE] ? Its Hb was 12.9

----------
Species on record: Rattus norvegicus
Experiment: Open TG-GATES - Regimen: Daily Repeat
Format: toxicity, organism-based, Sprague-Dawley
Set-up: regimen Daily Repeat, gender Male, age 6 weeks
Conditions: in vivo, po, 0 mg/kg, […], tissue Plasma, route gavage, dose level Control, time 7 day
Recorded Ca, one value per entry.
All answers are understood in mg/dL, so give the number only.

So, CC[C@H]1[C@@H]2C[C@H]3[C@@H]4N(C)c5ccccc5[C@]45C[C@@H]([C@@H]2[C@H]5O)N3[C@@H]1O [AJMALINE] ? Its Ca was 11.1

So, CCC1(c2ccccc2)C(=O)NC(=O)NC1=O [PHENOBARBITAL] ? Its Ca was 10.9

So, ClC(Cl)(Cl)Cl [CARBON TETRACHLORIDE] ? Its Ca was 10.7

So, OCCOCCN1CCN(C(c2ccccc2)c2ccc(Cl)cc2)CC1 (stereo not given) [HYDROXYZINE] ? Its Ca was 11

So, CCCCc1oc2ccccc2c1C(=O)c1cc(I)c(OCCN(CC)CC)c(I)c1 [AMIODARONE] ? Its Ca was 10.6

----------
Species: Rattus norvegicus
Test: Open TG-GATES - Regimen: Daily Repeat
Format: toxicity, organism-based, Sprague-Dawley
Design: regimen Daily Repeat, gender Male, age 6 weeks
Settings: in vivo, po, 0 mg/kg, […], tissue Plasma, route gavage, dose level Control, time 28 day
endpoint: Ca

[
  {
    "compound": "ClC(Cl)(Cl)Cl [CARBON TETRACHLORIDE]",
    "result": "10.5 mg/dL"
  },
  {
    "compound": "CC1=C(CC(=O)O)c2cc(F)ccc2/C1=C\\c1ccc([S+](C)[O-])cc1 (stereo not given)",
    "result": "10.3 mg/dL"
  },
  {
    "compound": "OCCOCCN1CCN(C(c2ccccc2)c2ccc(Cl)cc2)CC1 (stereo not given) [HYDROXYZINE]",
    "result": "10.6 mg/dL"
  },
  {
    "compound": "CC[C@H]1[C@@H]2C[C@H]3[C@@H]4N(C)c5ccccc5[C@]45C[C@@H]([C@@H]2[C@H]5O)N3[C@@H]1O [AJMALINE]",
    "result": "10.3 mg/dL"
  }
]

So, CN(C)C(=N)N=C(N)N [METFORMIN] ? Its Ca was 11.1 mg/dL
